test system: UO-31 renal; test: NCI tumour cell line growth inhibition, 48 h
parameter_measured: TGI

Input: Indicate the recorded TGI value for this compound: COc1ccc(N2C(Cl)C(=O)C2c2c[nH]c3ccccc23)cc1 (stereo unspecified)
Output: > 100 µM

Input: Indicate the recorded TGI value for this compound: c1ccc(Cc2cc(-c3ccccc3)n[nH]2)cc1
Output: 49.8 µM

Input: Indicate the recorded TGI value for this compound: COc1cccc(/C(COc2ccc3c(c2)oc(=O)c2ccccc23)=N\O)c1
Output: 34.3 µM

Input: Indicate the recorded TGI value for this compound: COc1ccn(CC(=O)c2cc3ccccc3[nH]2)c(=O)n1
Output: > 100 µM

Input: Indicate the recorded TGI value for this compound: COc1cccc(/C=C(\NC(C)=O)c2nc3ccc(Cl)cc3[nH]2)c1
Output: > 100 µM

Input: Indicate the recorded TGI value for this compound: Oc1c(I)cc(I)cc1CNCCN(Cc1ccccn1)Cc1ccccn1
Output: 2.07 µM

###

system: SNB-19 CNS; assay: NCI tumour cell line growth inhibition, 48 h; in the data active = GI50 below about 0.43 µM; inactive = the rest
Just give me one of these, please: active, inactive

Input: How did this test come out for [C-]#[O+].[C-]#[O+].[C-]#[O+].[C-]#[O+].[O-]C(c1ccccc1[PH+]1OC(C(F)(F)F)(C(F)(F)F)c2ccccc21)(C(F)(F)F)C(F)(F)F.[Re] (centres undefined) ?
Output: inactive

Input: How did this test come out for O=C1Nc2ccccc2/C1=C\c1c[nH]c2ccc(Br)cc12 ?
Output: inactive

Input: How did this test come out for CCN1C(C)(C)CC(Oc2ccc(C(=O)Nc3ccc(NC(=O)Nc4cc(C(C)(C)C)on4)cc3)nc2)CC1(C)C ?
Output: inactive

Input: How did this test come out for Cn1cc(C2=C(Oc3ccccc3)C(=O)NC2=O)c2ccccc21 ?
Output: inactive

Input: How did this test come out for O=c1oc2ccc(Br)cc2c(=O)n1-c1ccc(Br)cc1F ?
Output: active

Input: How did this test come out for CCC(=O)c1c(C(F)(F)F)n([O-])c2cc(N3CCNCC3)c(F)cc2[n+]1=O ?
Output: inactive

Input: How did this test come out for COc1cc2c(/C=C3\C(=O)N(C)c4ccc(O)cc43)c[nH]c2cc1C ?
Output: inactive

Input: How did this test come out for COc1cc(C2CC(c3cccc(Nc4ccnc5cc(Cl)ccc45)c3)=NN2C=O)cc(OC)c1OC (centres undefined) ?
Output: inactive

Input: How did this test come out for CCn1c(-c2nonc2N)nc2c(C#CC(C)(C)O)nc(CN3CCCC3)cc21 ?
Output: inactive

###

tested on: OVCAR-8 ovarian; test: NCI tumour cell line growth inhibition, 48 h; in the data active = GI50 below about 0.43 µM; inactive = the rest
Just give me one of these, please: true (active), false (inactive)

Input: How did this test come out for COc1cccc2c1C(=O)c1c(O)c3c(c(O)c1C2=O)C[C@@](O)(C(C)=O)C[C@@H]3O[C@H]1C[C@H](N)[C@H](O)[C@H](C)O1 ?
Output: true

Input: How did this test come out for CCCCCCCCCC(CCCC(O)CC(=O)O)OC1OC(COC2OC(C)C(O)C(O)C2O)C(O)C(O)C1OC1OC(CO)C(O)C(O)C1OC1OC(C)C(OC(=O)CC(C)C)C(O)C1O (centres undefined) ?
Output: false

Input: How did this test come out for CSc1nc(N)cc(Oc2ccc(-c3nc(Nc4cccc(C(F)(F)F)c4)n[nH]3)cc2)n1 ?
Output: false

Input: How did this test come out for Clc1ccc(Nc2nnc(CNc3ccccc3)c3ccccc23)cc1 ?
Output: false

Input: How did this test come out for O=C1C(Br)=CC2C1C1C3CCC3C2(Br)C12OCCO2 (centres undefined) ?
Output: false

Input: How did this test come out for Oc1c(I)cc(I)cc1CNCCN(Cc1ccccn1)Cc1ccccn1 ?
Output: false

Input: How did this test come out for COc1cc(C2CC(c3cccc(Nc4ccnc5cc(Cl)ccc45)c3)=NN2C=O)cc(OC)c1OC (centres undefined) ?
Output: false

Input: How did this test come out for CN1CCN(c2ccc3[nH]c(C4=C(O)c5nc(CCl)n(C)c5C(=O)C4=O)nc3n2)CC1 ?
Output: false

Input: How did this test come out for O=C(NCCCN1CCC(N2CCCCC2)CC1)C1=Cc2cc(Br)ccc2OC1 ?
Output: false

###

system: TK-10 renal; assay: NCI tumour cell line growth inhibition, 48 h
Kindly state TGI for each of the entries shown.

Input: Indicate the recorded TGI value for this molecule: COC12OCCN(CCO)C1=CC(=O)C1(C)N=NC(C)C12 (configuration not stated)
Output: > 100 µM

Input: Indicate the recorded TGI value for this molecule: C=C1c2nc3ccccc3n2C=C(c2ccc(OC)cc2)N1c1ccccc1
Output: > 100 µM

Input: Indicate the recorded TGI value for this molecule: CC(=O)OCc1cnc2c3c(nc4ccccc4c13)C(=O)c1cccnc1-2
Output: 0.42 µM

Input: Indicate the recorded TGI value for this molecule: N[C@H]1C[C@@H]1c1ccc(-c2cccc(O)c2)cc1
Output: > 100 µM

Input: Indicate the recorded TGI value for this molecule: COc1cc(-c2cc(/C=C3\C(=O)Nc4cc(Cl)ccc43)[nH]n2)cc(OC)c1OC
Output: 32.3 µM

Input: Indicate the recorded TGI value for this molecule: COc1ccc(C(=O)O)c(Br)c1OCc1ccccc1
Output: > 100 µM

Input: Indicate the recorded TGI value for this molecule: COc1ccccc1-c1cc(=O)c2c(C)ccnc2[nH]1
Output: > 100 µM

Input: Indicate the recorded TGI value for this molecule: O=C(Cc1nc(-c2ccccc2)cc(=O)n1-c1ccccc1Cl)c1ccncc1
Output: > 100 µM

Input: Indicate the recorded TGI value for this molecule: COc1cccc2c1C(=O)c1c(O)c3c(c(O)c1C2=O)C[C@@](O)(C(C)=O)C[C@@H]3O[C@H]1C[C@H](N)[C@H](O)[C@H](C)O1
Output: 0.793 µM

Input: Indicate the recorded TGI value for this molecule: O=[As]O
Output: > 100 µM

Input: Indicate the recorded TGI value for this molecule: N#Cc1c(-c2ccc(Cl)cc2)cc(-c2ccc(Nc3ccnc4cc(Cl)ccc34)cc2)nc1N
Output: > 100 µM

Input: Indicate the recorded TGI value for this molecule: CC(C)(C)C(=O)C(C(=O)c1ccccc1)C(=O)C(C)(C)C
Output: > 100 µM

Input: Indicate the recorded TGI value for this molecule: S=c1nc2sc3c(c2c(Nc2ccccc2)[nH]1)CCCC3
Output: > 100 µM

Input: Indicate the recorded TGI value for this molecule: CC(C)NC(=O)OCc1c(COC(=O)NC(C)C)c(-c2ccc[n+](COC(=O)C(C)C)c2)n2c1CCC2
Output: > 100 µM

Input: Indicate the recorded TGI value for this molecule: O=c1[nH]cnc2c1ccn2C1OC(CO)C(O)C1O (configuration not stated)
Output: 51.3 µM

Input: Indicate the recorded TGI value for this molecule: O=C1Nc2ccccc2C12CCCC2
Output: > 100 µM

Input: Indicate the recorded TGI value for this molecule: C=CCN1CN(C2CCCCC2)CSC1=S
Output: 27 µM

Input: Indicate the recorded TGI value for this molecule: COc1c2c(cc3occ(-c4ccc(CC=C(C)C)cc4)c(=O)c13)OC(C)(C)C=C2
Output: > 100 µM

Input: Indicate the recorded TGI value for this molecule: CCn1c(-c2nonc2N)nc2c(C#CC(C)(C)O)nc(CN3CCCC3)cc21
Output: > 25 µM

Input: Indicate the recorded TGI value for this molecule: COc1cc(C2CC(c3cccc(Nc4ccnc5cc(Cl)ccc45)c3)=NN2C=O)cc(OC)c1OC (configuration not stated)
Output: 4.45 µM

Input: Indicate the recorded TGI value for this molecule: CC1=C(C(=O)CC(=O)C(=O)Nc2cccc(C)c2C)Sc2ccccc2N1
Output: > 100 µM

Input: Indicate the recorded TGI value for this molecule: CC(C)(C)C1=NC(=P(c2ccccc2)(c2ccccc2)c2ccccc2)C(=O)O1
Output: > 100 µM

###

Kindly state TGI for each of the entries shown.
system: OVCAR-4 ovarian; assay: NCI tumour cell line growth inhibition, 48 h
Could you give me the number in µM? Just the number is fine.

Input: GET TGI | system: OVCAR-4 ovarian | item: O=C(OCc1nc2nc(Cl)nc(N3CCOCC3)c2[nH]1)n1ccnc1
Output: 3.38

Input: GET TGI | system: OVCAR-4 ovarian | item: CN(C)c1nc(N)nc(CCl)n1
Output: 38.2

Input: GET TGI | system: OVCAR-4 ovarian | item: COc1ccc(-c2nc(N)n(C)c2SSc2c(-c3ccc(OC)cc3)nc(N)n2C)cc1
Output: 15.9

Input: GET TGI | system: OVCAR-4 ovarian | item: CNC(=O)Oc1ccc(C(=S)Nc2ccc(Br)cc2)cc1
Output: 77.1

###

Kindly state TGI for each of the entries shown.
test system: HOP-62 NSCLC; assay: NCI tumour cell line growth inhibition, 48 h

Input: Indicate the recorded TGI value for this compound: CCC(=O)c1c(C(F)(F)F)n([O-])c2cc(N3CCNCC3)c(F)cc2[n+]1=O
Output: 22.6 µM

Input: Indicate the recorded TGI value for this compound: CC1(C(=O)Nc2ccc3cc4ccccc4cc3c2)CC2(C)CC(C)(C1)C(O)NC2=O (stereo not given)
Output: > 100 µM

Input: Indicate the recorded TGI value for this compound: CCN(CC)c1ccc(/C=N/NC(=O)c2ccc(S(C)(=O)=O)cc2)c(O)c1
Output: > 57.9 µM

Input: Indicate the recorded TGI value for this compound: CC(C)NC(=O)OCc1c(COC(=O)NC(C)C)c(-c2ccc[n+](COC(=O)C(C)C)c2)n2c1CCC2
Output: > 100 µM

Input: Indicate the recorded TGI value for this compound: Nc1nc(Cl)nc(NCc2ccccc2)n1
Output: > 100 µM
